// provenance: PubChem BioAssay AID463173

Test system: DeltatarO mutant
Test: S. aureus survival, RN4220 and DeltatarO strains – OD600, teichoic acid synthesis inhibitors, primary screen (AID 463173)
Conditions: S. aureus RN4220 wild type/DeltatarO growth, OD600, 18 h, screened at 18.75 µg/mL (by protocol)
The whole screen tested about 52,000 compounds, of which about 4,300 (8.3%) were called active. Cut-off read from the data, not from the text of the source: active = survival mostly below about 52% (no sharp cut-off); inactive = mostly above about 56%. Only a selection was taken, and actives are over-represented in it overall.
Possible outcomes: true (active), false (inactive)

# smiles-code, class-assignment
records = [
    ("Cc1cc(C)cc(-n2ccnc2SCC(=O)Nc2nc3ccc(C)cc3s2)c1", "true"),
    ("CC(=O)N1CCOc2cc(S(=O)(=O)NCc3ccccc3Cl)c(Cl)cc21", "false"),
    ("COc1ccc(NC(=O)c2ccco2)cc1NC(=O)c1ccc(C)c(C)c1", "true"),
    ("COc1ccc(NC(=O)c2ccco2)cc1NC(=O)c1ccccc1[N+](=O)[O-]", "false"),
    ("COc1ccc(C(=O)Nc2cc(NC(=O)c3ccco3)ccc2OC)cc1Cl", "false"),
]

* * *

System: DeltatarO mutant
Assay: S. aureus survival, RN4220 and DeltatarO strains – OD600, teichoic acid synthesis inhibitors, primary screen (AID 463173)
Conditions: S. aureus RN4220 wild type/DeltatarO growth, OD600, 18 h, screened at 18.75 µg/mL (by protocol)
Hit rate of the full screen: of about 52,000 compounds, about 4,300 (8.3%) were called active. Rule as the data show it: active = survival mostly below about 52% (no sharp cut-off); inactive = mostly above about 56%. The list comes from a sample in which actives are over-represented; it also holds close analogues and randomly drawn compounds.
Possible outcomes: active, inactive

# smiles-code, tested-system, class-assignment
rows = [
    ("CC(=O)c1ccc(NS(=O)(=O)c2ccc(Br)s2)cc1", "DeltatarO mutant", "active"),
    ("Cc1cccc(OCc2nnc(SCC(N)=O)o2)c1", "DeltatarO mutant", "inactive"),
    ("Cn1c(=O)[nH]c(=O)c2[nH]c(NCCO)nc21", "DeltatarO mutant", "inactive"),
    ("O=C(COc1ccccc1)Nc1ccccc1C(=O)OCc1cc(=O)n2nc(C3CC3)sc2n1", "DeltatarO mutant", "inactive"),
    ("CCOC(=O)CSc1nnc(COc2cccc(C)c2)o1", "DeltatarO mutant", "active"),
    ("COc1ccc(Cl)cc1N(C)C(=O)c1ccc2c(=O)n3c(nc2c1)CCCCC3", "DeltatarO mutant", "inactive"),
]

* * *

// reported survival for each item listed
System: DeltatarO mutant
Assay: S. aureus survival, RN4220 and DeltatarO strains – OD600, teichoic acid synthesis inhibitors, primary screen (AID 463173)
Conditions: S. aureus RN4220 wild type/DeltatarO growth, OD600, 18 h, hits give low values, screened at 18.75 µg/mL (by protocol)
Hit rate of the full screen: of about 52,000 compounds, about 4,300 (8.3%) were called active. Only a selection was taken, and actives are over-represented in it overall.

# smiles-code, unit-symbol, survival
data = [
    ("CCC(=O)N1c2nc(C(C)C)nn2C2(CCCCC2)[C@@H]2CCCC[C@@H]21", "%", 81),
    ("O=C(CSc1nnc(-c2ccccc2)o1)Nc1ccccc1", "%", 82),
    ("CC(C)Oc1ccc(CNC(=O)Cn2c(=O)oc3ccccc32)cc1", "%", 77),
    ("CCOC(=O)c1cc(S(=O)(=O)N2CCN(c3ccc(OC)cc3)CC2)[nH]n1", "%", 128),
    ("CCOc1ccccc1CNS(=O)(=O)c1ccc2[nH]c(=O)ccc2c1", "%", 81),
    ("Cc1cc(-c2ccc(C)c(S(=O)(=O)NCCc3ccc(S(N)(=O)=O)cc3)c2)on1", "%", 92),
    ("CCOc1ccc(CNS(=O)(=O)c2ccc3[nH]c(=O)ccc3c2)cc1", "%", 85),
    ("COCCn1c(SCC(=O)c2ccc(F)cc2)nc2cc(C(=O)NC3CCCC3)ccc2c1=O", "%", 94),
    ("CCCN(C(=O)c1coc(=O)c2ccccc12)c1ccccc1C", "%", 56),
    ("COc1ccc(CCNS(=O)(=O)c2ccc(N3CCCCS3(=O)=O)cc2)cc1OC", "%", 69),
    ("CCN(C(=O)c1coc(=O)c2ccccc12)c1ccccc1C", "%", 113),
    ("CCCCNC(=O)c1cnn2c(C)c(Cc3c(C)cc(C)cc3C)c(C)nc12", "%", 102),
    ("CCCCOC(=O)CSc1nnc(-c2ccc(C)cc2)o1", "%", 12),
    ("CCOc1ccc(CCNC(=O)c2ccc3c(c2)c(C)c(C)n3Cc2ccccc2)cc1OCC", "%", 83),
    ("Cc1ccc(C)c(N2CCN(CCCNC(=O)Cn3ncc4c([nH]c5ccccc54)c3=O)CC2)c1", "%", 94),
    ("CCOC(=O)CSc1nnc(-c2ccc(OC)cc2)o1", "%", 66),
    ("CCCOc1ccc(C(=O)Nc2ccc(-c3cc4ccccc4oc3=O)c(C)c2)cc1", "%", 71),
    ("CCCN(C(=O)c1cn(C)c(=O)c2ccccc12)c1ccccc1C", "%", 79),
    ("O=C(CSc1nnc(-c2ccco2)o1)NC(c1ccccc1)c1ccccc1", "%", 61),
    ("Cc1cccc(N2CCN(C(=O)CCc3nnc4n(CC(C)C)c(=O)c5ccccc5n34)CC2)c1C", "%", 74),
    ("O=C(CCSc1nnc(-c2ccco2)o1)Nc1ccccc1", "%", 86),
    ("O=S(=O)(c1cc(Br)c(Br)s1)N1CCN(c2ccccc2)CC1", "%", 72),
]

* * *

Test system: DeltatarO mutant
Test: S. aureus survival, RN4220 and DeltatarO strains – OD600, teichoic acid synthesis inhibitors, primary screen (AID 463173)
Settings: S. aureus RN4220 wild type/DeltatarO growth, OD600, 18 h, hits give low values, screened at 18.75 µg/mL (by protocol)
The whole screen tested about 52,000 compounds, of which about 4,300 (8.3%) were called active. The sample holds actives, similar compounds and a random draw of the others, so the mix is not that of the screen.
measured-property: survival (%)

# molecule, unit-symbol, data-value
measured = [
    ("COc1ccc(NC(=O)Cn2nc(SC)c(S(=O)(=O)c3ccc(C)cc3)c2N)cc1OC", "%", 25),
    ("Cc1cccc(N(CC(=O)N(C)Cc2ccccc2)S(=O)(=O)c2ccccc2)c1C", "%", 47),
    ("CCSc1nn(CC(=O)Nc2ccc(C(=O)OC)cc2)c(N)c1S(=O)(=O)c1ccc(C)cc1", "%", 37),
    ("O=C(c1cnc(N2CCOCC2)c2ccccc12)N1CCN(c2ccccc2F)CC1", "%", 71),
    ("CCOC(=O)c1nc(Nc2ccc(OC)cc2)c2ccccc2n1", "%", 153),
    ("CCOc1ccc(-n2c(=O)c3c(C)c(C)sc3n(Cc3c(F)cccc3Cl)c2=O)cc1", "%", 96),
    ("COc1ccc(OC)c(S(=O)(=O)Nc2cccc(-c3ccc(N4CCCCC4)nn3)c2)c1", "%", 83),
    ("CC(C)OCCCn1c(=O)c2ccccc2n2c(-c3ccc(F)cc3)nnc12", "%", 98),
    ("CCOC(=O)c1nc(Nc2ccccc2C)c2ccccc2n1", "%", 49),
    ("Cc1ccc(-n2c(=O)c3c(cnn3C)n(CC(=O)Nc3cccc(Cl)c3)c2=O)cc1", "%", 55),
    ("CCN(CC)S(=O)(=O)c1ccc2c(c1)c(=O)c(C(=O)NCc1ccccc1OC)cn2C", "%", 71),
    ("CCOC(=O)c1ccc(NC(=O)Cn2nc(SC)c(S(=O)(=O)c3ccc(Cl)cc3)c2N)cc1", "%", 99),
    ("O=C(NC1CC(=O)N(c2ccccc2)C1)C(c1ccccc1)c1ccccc1 (stereo unspecified)", "%", 89),
    ("CCCCCOC(=O)c1ccc(Nc2nc(C(=O)OCC)nc3ccccc23)cc1", "%", 60),
    ("CCOC(=O)c1nc(Nc2ccccc2OC)c2ccccc2n1", "%", 44),
    ("CCCOC(=O)c1cccc(Nc2nc(C(=O)OCC)nc3ccccc23)c1", "%", 20),
    ("CCc1cc(C=Nc2ccccc2)c(O)s1", "%", 98),
    ("O=C1COc2ccc(-c3cc(-c4ccc(F)cc4)c4c(n3)-c3cc(Cl)ccc3OC4)cc2N1", "%", 88),
    ("COc1ccc(NC(=O)CN2C(=O)COc3ccc(S(=O)(=O)NC4CCCC4)cc32)cc1OC", "%", 75),
    ("CCOCCCNC(=O)CCC(=O)NNc1nc2ccccc2c2nc(-c3ccccc3)nn12", "%", 83),
    ("Cc1ccc(CNC(=O)c2sc3nc(C)cc(C)c3c2-n2cccc2)cc1", "%", 90),
]

* * *

System: DeltatarO mutant
Assay: S. aureus survival, RN4220 and DeltatarO strains – OD600, teichoic acid synthesis inhibitors, primary screen (AID 463173)
Conditions: S. aureus RN4220 wild type/DeltatarO growth, OD600, 18 h, hits give low values, screened at 18.75 µg/mL (by protocol)
Among all 52,000 compounds or so, about 4,300 (8.3%) were called active. The sample holds actives, similar compounds and a random draw of the others, so the mix is not that of the screen.
One threshold, 80%, splits the recorded survival values: lower ones are met, equal or higher ones are not met.

# smiles-code, tested-system, class-assignment
records = [
    ("Fc1ccc(-c2cc(C(F)(F)F)nc(NCc3ccccc3)n2)cc1", "DeltatarO mutant", "not met"),
    ("COc1ccc(-c2cc(NCc3ccc(F)cc3)n3cnnc3n2)cc1", "DeltatarO mutant", "met"),
    ("O=C(CSc1nc(-c2ccc(F)cc2)cc(C(F)(F)F)n1)NCCc1ccccc1", "DeltatarO mutant", "met"),
    ("COc1ccc(Br)cc1Cn1nnc(C(=O)Nc2ccc(C)cc2C)c1N", "DeltatarO mutant", "met"),
    ("Fc1ccc(CNc2cc(-c3ccccc3)nc3nncn23)cc1", "DeltatarO mutant", "met"),
    ("O=S(=O)(c1ccccc1)n1nc(-c2ccc(Cl)cc2)nc1NCc1ccc(F)cc1", "DeltatarO mutant", "met"),
    ("CCOc1ccccc1CNC(=O)CCn1cccn1", "DeltatarO mutant", "met"),
    ("COc1ccc(-c2ccc(NS(=O)(=O)c3ccc(F)c(C(F)(F)F)c3)cc2)nn1", "DeltatarO mutant", "not met"),
    ("Clc1ccc(CNc2cc(-c3ccccc3)nc3nncn23)cc1", "DeltatarO mutant", "met"),
    ("Cc1ccc(NC(=O)CSc2nc3ccc(NC(=O)CCc4ccccc4)cc3s2)cc1", "DeltatarO mutant", "not met"),
]
